Attribution: patent US8318947B2

Form field: melting point (one value per entry).

Fill in: melting point of Cc1ccc(CNC(=O)C(=O)NCCc2ccccn2)cc1 is ___ 152 to 154 °C

Fill in: melting point of COc1ccccc1CNC(=O)C(=O)NCCc1ccccn1 is ___ 118 to 119 °C

###

Form field: melting point (one value per entry).

Fill in: melting point of CCOc1ccc(CNC(=O)C(=O)NCCc2ccccn2)c(OC)c1 is ___ 117 to 118 °C

Fill in: melting point of Cc1ccc(CNC(=O)C(=O)NCCc2ccccn2)c(C)c1 is ___ 148 to 149 °C

Fill in: melting point of COc1cc(C)ccc1CNC(=O)C(=O)NCCc1ccccn1 is ___ 128 to 131 °C

Fill in: melting point of COc1cc(C)ccc1CNC(=O)C(=O)NCCc1ccc(C)cn1 is ___ 133.5 to 134 °C
